Tested on: 422866-222-R5-J1-PDC spheroid viability;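 also: spheroids exposed to agents for seven days before readout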
PROCEDURE DETAILS: Anticancer human tumor 422866-222-R5-J1-PDC patient-derived pancreatic adenocarcinoma cell line growth inhibition [CLK]
RECORDED CONDITIONS: second compound 0.0316 µM; first compound 0.316 µM; active compounds read low; spheroids with HUVEC and MSC
Reported viability, T/C values follow for various compounds

For orientation, consider the following solved cases.
CC1(C)CCC(CN2CCN(c3ccc(C(=O)NS(=O)(=O)c4ccc(NCC5CCOCC5)c([N+](=O)[O-])c4)c(Oc4cnc5[nH]ccc5c4)c3)CC2)=C(c2ccc(Cl)cc2)C1 + CN1CCN(c2cc(C(=O)Nc3cc4cc(-c5cnn(C)c5)ccc4cn3)ccn2)CC1	101%
CC(=O)O[C@H]1C(=O)[C@@]2(C)[C@H]([C@H](OC(=O)c3ccccc3)[C@]3(O)C[C@H](OC(=O)[C@H](O)[C@@H](NC(=O)c4ccccc4)c4ccccc4)C(C)=C1C3(C)C)[C@]1(OC(C)=O)CO[C@@H]1C[C@@H]2O + CN1CCN(c2cc(C(=O)Nc3cc4cc(-c5cnn(C)c5)ccc4cn3)ccn2)CC1	61.4%
COc1c(OCCCN2CCOCC2)ccc2c3n(c(=NC(=O)c4cnc(N)nc4)nc12)CCN3 + CNC(=O)c1ccc(Nc2nc(OC3CCCC3)c3c(-c4ccc5nc(C)oc5c4)c[nH]c3n2)c(OC)c1	28.4%

// moving on: another record for viability, T/C
Result for CC(CO)NC(=O)c1cc(-c2ccc(Cl)cc2)nn(-c2cnn(C)c2)c1=O (centres undefined) + CNC(=O)c1ccc(Nc2nc(OC3CCCC3)c3c(-c4ccc5nc(C)oc5c4)c[nH]c3n2)c(OC)c1 , tested on 422866-222-R5-J1-PDC spheroid viability, viability, T/C: 112%
